The origin of these recorded values is patent US10717749B2.

- ASSAY COMMENT: In vivo pharmacokinetics in rats
- TEST CONTEXT: male, Wistar, rat, plasma, iv; i.v. bolus dosing to rats; read-out: t1/2: terminal half-life (converted)
# reported half-life; entries follow
Give just the numeric value; h need not be written.

The reported value for CS(=N)(=N)Cc1cc2nc(c1)OCCCOc1cc(F)ccc1-c1cc(ncc1F)N2 [Example 1] in terms of half-life is 3.4

The reported value for CS(=N)(=N)Cc1cc2cc(c1)OCCCCOc1cc(F)ccc1-c1nc(ncc1F)N2 [Example 5] in terms of half-life is 6.9

---

- System: rat hepatocytes
- ASSAY COMMENT: In vitro metabolic stability in rat hepatocytes
- Format: in vitro ADME
- TEST CONTEXT: 1 μM
MEASUREMENT LABEL: maximal calculated oral bioavailability (Fmax) based on stability data in rat hepatocytes (%)
Give just the numeric value; % need not be written.

[
  {
    "COMPOUND": "CS(=N)(=N)Cc1cc2nc(c1)OCCCOc1cc(F)ccc1-c1cc(ncc1F)N2",
    "MEASURED ON": "rat hepatocytes",
    "RESULT": 76
  },
  {
    "COMPOUND": "CS(=N)(=N)Cc1cc2cc(c1)OCCCCOc1cc(F)ccc1-c1nc(ncc1F)N2",
    "MEASURED ON": "rat hepatocytes",
    "RESULT": 93
  },
  {
    "COMPOUND": "CS(=N)(Cc1cc2nc(c1)OCCCOc1cc(F)ccc1-c1cc(ncc1F)N2)=NCCCO (racemic)",
    "MEASURED ON": "rat hepatocytes",
    "RESULT": 58
  }
]

Field: next compound
The reported value for CN=S(C)(=N)Cc1cc2cc(c1)OCCCCOc1cc(F)ccc1-c1nc(ncc1F)N2 (racemic) in terms of maximal calculated oral bioavailability (Fmax) based on stability data in rat hepatocytes is 46

---

- MEASURED ON: CDK9/CycT1 (Homo sapiens)
- Construct: Recombinant full-length His-tagged human CDK9 and CycT1; His; purchased Invitrogen PV4131; host or cells: insect cells
- ASSAY COMMENT: CDK9/CycT1 high ATP kinase assay (Method 1b, TR-FRET, 2 mM ATP)
- Type: biochemical
- TEST CONTEXT: Method 1b, 2 mM ATP
MEASUREMENT LABEL: IC50 (nM)
Give just the numeric value; nM need not be written.

[
  {
    "COMPOUND": "CS(=N)(Cc1cc2nc(c1)OCCCOc1cc(F)ccc1-c1cc(ncc1F)N2)=NCCCO (racemic)",
    "IC50 [nM]": 2
  },
  {
    "COMPOUND": "CS(=N)(Cc1cc2cc(c1)OCCCCOc1cc(F)ccc1-c1nc(ncc1F)N2)=NC1CC1 (racemic)",
    "IC50 [nM]": 2.3
  },
  {
    "COMPOUND": "CS(=N)(=N)Cc1cc2cc(c1)OCCCCOc1c(ccc(F)c1F)-c1nc(ncc1F)N2",
    "IC50 [nM]": 5.9
  },
  {
    "COMPOUND": "CS(=N)(=N)Cc1cc2nc(c1)OCCCOc1cc(F)ccc1-c1cc(ncc1F)N2",
    "IC50 [nM]": 2
  },
  {
    "COMPOUND": "CS(=N)(=N)Cc1cc2cc(c1)OCCCCOc1cc(F)ccc1-c1nc(ncc1F)N2",
    "IC50 [nM]": 2.1
  }
]

The reported value for CN=S(C)(=N)Cc1cc2cc(c1)OCCCCOc1cc(F)ccc1-c1nc(ncc1F)N2 (racemic) in terms of IC50 is 3.4

The reported value for CS(=N)(Cc1cc2nc(c1)OCCCOc1cc(F)ccc1-c1cc(ncc1F)N2)=NC#N (racemic) in terms of IC50 is 1.7

The reported value for CN=S(C)(=N)Cc1cc2nc(c1)OCCCOc1cc(F)ccc1-c1cc(ncc1F)N2 (racemic) in terms of IC50 is 3.7

The reported value for CS(=N)(=N)Cc1cc2nc(c1C#N)OCCCOc1cc(F)ccc1-c1cc(ncc1F)N2 in terms of IC50 is 1.5

---

- Test system: HeLa-MaTu-ADR
- ASSAY COMMENT: Proliferation assay, crystal violet
- Format: cell-based
- TEST CONTEXT: Homo sapiens, 96 h, 4 days, read-out: Inhibition of HeLa-MaTu-ADR cell proliferation IC50
MEASUREMENT LABEL: pIC50
// pIC50: -log10(molar conc.)

The reported value for CS(=N)(=N)Cc1cc2nc(c1)OCCCOc1cc(F)ccc1-c1cc(ncc1F)N2 in terms of pIC50 is 8.11

---

- ASSAY COMMENT: Caco-2 permeation assay
- Type: in vitro ADME
- TEST CONTEXT: human, Caco-2, pH 7.2; test compound 2 μM; read-out: Papp B-A (Mari)
# reported Papp B→A at 2 h, 2 μM; entries follow
Give just the numeric value; ×10⁻⁶ cm/s need not be written.

Field: example entries. Status: answers known.
[
  {
    "COMPOUND": "CS(=N)(=N)Cc1cc2cc(c1)OCCCCOc1cc(F)ccc1-c1nc(ncc1F)N2 [Example 5]",
    "RESULT": 24.1
  },
  {
    "COMPOUND": "CS(=N)(=N)Cc1cc2cc(c1)OCCCCOc1c(ccc(F)c1F)-c1nc(ncc1F)N2 [Example 6]",
    "RESULT": 22.3
  },
  {
    "COMPOUND": "CS(=N)(Cc1cc2nc(c1)OCCCOc1cc(F)ccc1-c1cc(ncc1F)N2)=NCCCO (racemic) [Example 2]",
    "RESULT": 22.9
  }
]

The reported value for CS(=N)(=N)Cc1cc2nc(c1)OCCCOc1cc(F)ccc1-c1cc(ncc1F)N2 [Example 1] in terms of Papp B→A at 2 h, 2 μM is 8.92

---

- MEASURED ON: CDK9/CycT1 (Homo sapiens, UniProt P50750)
- Construct: Recombinant full-length His-tagged human CDK9 and CycT1; His; purchased Invitrogen PV4131; host or cells: insect cells
- Sequence (P50750 whole entry): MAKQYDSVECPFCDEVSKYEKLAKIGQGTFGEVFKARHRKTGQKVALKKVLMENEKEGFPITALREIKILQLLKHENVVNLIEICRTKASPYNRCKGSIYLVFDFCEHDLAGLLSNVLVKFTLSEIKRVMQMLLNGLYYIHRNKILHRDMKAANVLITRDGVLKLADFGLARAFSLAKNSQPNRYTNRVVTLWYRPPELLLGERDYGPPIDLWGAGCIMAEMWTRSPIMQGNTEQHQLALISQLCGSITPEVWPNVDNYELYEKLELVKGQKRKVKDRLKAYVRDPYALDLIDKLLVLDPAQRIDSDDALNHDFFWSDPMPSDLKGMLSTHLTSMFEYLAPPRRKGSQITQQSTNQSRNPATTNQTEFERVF
- Sequence (O60563 whole entry partner): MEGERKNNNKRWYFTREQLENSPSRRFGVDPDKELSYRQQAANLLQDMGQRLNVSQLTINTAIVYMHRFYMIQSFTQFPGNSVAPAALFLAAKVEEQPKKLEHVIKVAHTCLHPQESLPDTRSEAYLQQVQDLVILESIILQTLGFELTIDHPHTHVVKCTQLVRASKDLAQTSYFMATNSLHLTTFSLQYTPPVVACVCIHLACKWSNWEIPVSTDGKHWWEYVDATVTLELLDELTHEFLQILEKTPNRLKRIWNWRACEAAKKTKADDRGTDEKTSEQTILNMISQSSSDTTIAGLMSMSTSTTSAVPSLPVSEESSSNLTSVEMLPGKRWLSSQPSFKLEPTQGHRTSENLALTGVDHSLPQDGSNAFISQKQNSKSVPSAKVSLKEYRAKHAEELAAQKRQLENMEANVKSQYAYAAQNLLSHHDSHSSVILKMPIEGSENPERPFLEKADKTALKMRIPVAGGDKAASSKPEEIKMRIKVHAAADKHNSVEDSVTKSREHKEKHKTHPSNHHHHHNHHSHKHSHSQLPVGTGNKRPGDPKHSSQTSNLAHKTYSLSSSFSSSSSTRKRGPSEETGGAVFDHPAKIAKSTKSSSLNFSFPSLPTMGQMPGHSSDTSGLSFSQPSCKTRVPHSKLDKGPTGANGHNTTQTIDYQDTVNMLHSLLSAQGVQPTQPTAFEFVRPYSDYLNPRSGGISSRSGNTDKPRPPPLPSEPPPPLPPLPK
- ASSAY COMMENT: CDK9/CycT1 kinase assay (Method 1a, TR-FRET, 10 μM ATP)
- Type: biochemical
- TEST CONTEXT: Methods 1a and 2a; minimal values
# if value of Selectivity CDK9 over CDK2: IC50 (CDK2)/IC50 (CDK9) reaches 30, tag T; if it stays below, tag F

Use the examples below as a reference point.
[
  {
    "COMPOUND": "CS(=N)(=N)Cc1cc2nc(c1C#N)OCCCOc1cc(F)ccc1-c1cc(ncc1F)N2",
    "MEASURED ON": "CDK9/CycT1 (Homo sapiens, UniProt P50750)",
    "ASSIGNED CATEGORY": "F"
  },
  {
    "COMPOUND": "CS(=N)(Cc1cc2cc(c1)OCCCCOc1cc(F)ccc1-c1nc(ncc1F)N2)=NC1CC1 (racemic)",
    "MEASURED ON": "CDK9/CycT1 (Homo sapiens, UniProt P50750)",
    "ASSIGNED CATEGORY": "T"
  }
]

Task: Check the entry CS(=N)(=N)Cc1cc2cc(c1)OCCCCOc1cc(F)ccc1-c1nc(ncc1F)N2 : does Selectivity CDK9 over CDK2: IC50 (CDK2)/IC50 (CDK9) equal or exceed 30?
Output: F

Task: Check the entry CS(=N)(=N)Cc1cc2cc(c1)OCCCCOc1c(ccc(F)c1F)-c1nc(ncc1F)N2 : does Selectivity CDK9 over CDK2: IC50 (CDK2)/IC50 (CDK9) equal or exceed 30?
Output: T

Task: Check the entry CS(=N)(=N)Cc1cc2nc(c1)OCCCOc1cc(F)ccc1-c1cc(ncc1F)N2 : does Selectivity CDK9 over CDK2: IC50 (CDK2)/IC50 (CDK9) equal or exceed 30?
Output: F

Task: Check the entry CS(=N)(=N)Cc1cc2cc(c1)OCCCCOc1c(F)cccc1-c1nc(ncc1F)N2 : does Selectivity CDK9 over CDK2: IC50 (CDK2)/IC50 (CDK9) equal or exceed 30?
Output: T

Task: Check the entry CS(=N)(Cc1cc2nc(c1)OCCCOc1cc(F)ccc1-c1cc(ncc1F)N2)=NCCCO (racemic) : does Selectivity CDK9 over CDK2: IC50 (CDK2)/IC50 (CDK9) equal or exceed 30?
Output: F

Task: Check the entry CN=S(C)(=N)Cc1cc2nc(c1)OCCCOc1cc(F)ccc1-c1cc(ncc1F)N2 (racemic) : does Selectivity CDK9 over CDK2: IC50 (CDK2)/IC50 (CDK9) equal or exceed 30?
Output: F

Task: Check the entry CS(=N)(Cc1cc2nc(c1)OCCCOc1cc(F)ccc1-c1cc(ncc1F)N2)=NC#N (racemic) : does Selectivity CDK9 over CDK2: IC50 (CDK2)/IC50 (CDK9) equal or exceed 30?
Output: F
